Molecular target: BRAF V600E (Homo sapiens, UniProt P15056, V600E)
Construct: endogenous C-terminal HiBiT fusion tag on BRAF V600E allele; endogenous in cells; host or cells: A375 clone 1F10 (CRISPR-Cas9 knock-in of the HiBiT tag; parental A375 from ATCC)
Sequence (P15056 whole entry V600E, the tested form may be a part): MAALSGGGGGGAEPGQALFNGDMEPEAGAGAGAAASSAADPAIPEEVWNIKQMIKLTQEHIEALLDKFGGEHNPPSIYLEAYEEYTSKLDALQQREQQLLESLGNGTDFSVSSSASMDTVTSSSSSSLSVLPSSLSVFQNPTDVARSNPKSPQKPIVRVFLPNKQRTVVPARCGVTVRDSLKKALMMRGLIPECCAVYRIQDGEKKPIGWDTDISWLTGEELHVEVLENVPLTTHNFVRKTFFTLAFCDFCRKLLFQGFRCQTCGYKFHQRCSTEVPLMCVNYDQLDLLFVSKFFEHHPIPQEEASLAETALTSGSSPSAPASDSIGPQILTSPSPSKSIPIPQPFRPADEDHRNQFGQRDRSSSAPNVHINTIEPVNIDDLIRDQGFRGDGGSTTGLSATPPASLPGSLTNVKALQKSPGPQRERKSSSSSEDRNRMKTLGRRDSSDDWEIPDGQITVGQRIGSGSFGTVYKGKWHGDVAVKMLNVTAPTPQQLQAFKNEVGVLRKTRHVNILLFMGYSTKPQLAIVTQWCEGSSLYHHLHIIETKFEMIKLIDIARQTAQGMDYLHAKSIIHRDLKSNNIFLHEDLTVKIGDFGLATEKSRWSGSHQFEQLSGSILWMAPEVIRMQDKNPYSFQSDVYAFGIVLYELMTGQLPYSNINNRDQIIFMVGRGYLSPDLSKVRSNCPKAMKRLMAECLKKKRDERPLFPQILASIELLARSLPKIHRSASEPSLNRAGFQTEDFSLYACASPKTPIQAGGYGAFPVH
Assay: BRAF HiBiT degradation assay, C-terminal HiBiT-tagged BRAF V600E A375 cells (clone 1F10), Nano-Glo HiBiT Lytic assay
Format: cell-based
Settings: A375 (BRAF V600E, Class 1); DC50 at 50% degradation
assay_endpoint: DC50

Sample records with DC50:
1. CCCS(=O)(=O)Nc1cccc(-c2nc(C3CCC4(CC3)CCN(C[C@H]3CC[C@H](Oc5ccc(C6CCC(=O)NC6=O)cn5)CC3)CC4)sc2-c2ccnc(N)n2)c1F (mixture of isomers)    10 to 50 nM
2. CCCS(=O)(=O)Nc1cccc(-c2nc(C3CCC4(CC3)CCN(C(=O)C[C@H]3CCN(c5ccc(C6CCC(=O)NC6=O)cc5)C3)CC4)sc2-c2ccnc(N)n2)c1F (mixture of isomers)    10 to 50 nM
3. C[C@@H]1CN(c2ccc(-n3cc(-c4cc(Cl)cc(NS(=O)(=O)N5CCCC5)c4F)c(-c4ccncc4)n3)nc2)CCN1CC1CCN(c2ccc([C@H]3CCC(=O)NC3=O)cc2)CC1    < 10 nM
4. O=C1CCC(c2ccc(N3CCC(CN4CCN(c5cnc(-n6cc(-c7cc(Cl)cc(NS(=O)(=O)N8CCCC8)c7F)c(-c7ccncc7)n6)nc5)CC4)CC3)nc2)C(=O)N1 (racemic)    < 10 nM

Here is the next item to consider.
Indicate its recorded DC50; the compound in question is O=C1CCN(c2ccc(N3CCC(CN4CCN(c5ccc(-n6cc(-c7cc(Cl)cc(NS(=O)(=O)N8CC[C@@H](F)C8)c7F)c(-c7ccncc7)n6)cc5)CC4)CC3)nc2)C(=O)N1
< 10 nM

Source of measurements: patent US20260317324A1
